Cited source: paper PMC2655231

targetEntity: Cdk5/p25 (Homo sapiens)
Sequence (Q00535 whole entry): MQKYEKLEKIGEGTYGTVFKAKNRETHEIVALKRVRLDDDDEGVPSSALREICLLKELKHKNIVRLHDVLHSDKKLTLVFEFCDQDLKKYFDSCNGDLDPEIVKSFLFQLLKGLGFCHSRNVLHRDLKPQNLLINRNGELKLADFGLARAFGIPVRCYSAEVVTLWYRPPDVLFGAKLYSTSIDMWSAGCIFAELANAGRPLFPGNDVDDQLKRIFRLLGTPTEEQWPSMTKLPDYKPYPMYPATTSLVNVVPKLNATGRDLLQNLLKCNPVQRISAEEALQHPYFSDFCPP
Sequence (Q15078 2-307 partner): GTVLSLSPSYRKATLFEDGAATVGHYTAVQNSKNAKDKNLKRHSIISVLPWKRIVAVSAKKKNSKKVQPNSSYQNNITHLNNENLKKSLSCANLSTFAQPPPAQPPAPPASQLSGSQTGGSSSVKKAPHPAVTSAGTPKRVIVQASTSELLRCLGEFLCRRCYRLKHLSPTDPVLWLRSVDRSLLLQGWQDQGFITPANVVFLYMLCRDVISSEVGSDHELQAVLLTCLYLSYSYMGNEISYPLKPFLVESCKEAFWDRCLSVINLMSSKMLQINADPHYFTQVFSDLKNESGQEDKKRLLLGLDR
testName: in vitro radiometric kinase assay
measuredAttribute: IC50

Ask: Return reported IC50; argument: COc1cc(/C=N/NC(=O)c2sc(N)nc2C)ccc1O [OM137]
Reply: ~20 µM

====

targetEntity: Aurora B kinase (Xenopus laevis, UniProt Q6DE08)
Sequence (Q6DE08 60-361 limits assumed): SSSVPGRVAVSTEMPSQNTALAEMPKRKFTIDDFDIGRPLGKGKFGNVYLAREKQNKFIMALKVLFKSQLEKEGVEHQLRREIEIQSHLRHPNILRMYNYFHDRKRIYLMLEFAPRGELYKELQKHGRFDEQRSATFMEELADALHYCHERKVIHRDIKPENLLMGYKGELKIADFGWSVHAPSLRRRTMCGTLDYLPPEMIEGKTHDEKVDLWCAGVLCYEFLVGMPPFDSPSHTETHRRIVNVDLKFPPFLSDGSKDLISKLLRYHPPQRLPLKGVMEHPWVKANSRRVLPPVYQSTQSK
Sequence (O13024 whole entry partner): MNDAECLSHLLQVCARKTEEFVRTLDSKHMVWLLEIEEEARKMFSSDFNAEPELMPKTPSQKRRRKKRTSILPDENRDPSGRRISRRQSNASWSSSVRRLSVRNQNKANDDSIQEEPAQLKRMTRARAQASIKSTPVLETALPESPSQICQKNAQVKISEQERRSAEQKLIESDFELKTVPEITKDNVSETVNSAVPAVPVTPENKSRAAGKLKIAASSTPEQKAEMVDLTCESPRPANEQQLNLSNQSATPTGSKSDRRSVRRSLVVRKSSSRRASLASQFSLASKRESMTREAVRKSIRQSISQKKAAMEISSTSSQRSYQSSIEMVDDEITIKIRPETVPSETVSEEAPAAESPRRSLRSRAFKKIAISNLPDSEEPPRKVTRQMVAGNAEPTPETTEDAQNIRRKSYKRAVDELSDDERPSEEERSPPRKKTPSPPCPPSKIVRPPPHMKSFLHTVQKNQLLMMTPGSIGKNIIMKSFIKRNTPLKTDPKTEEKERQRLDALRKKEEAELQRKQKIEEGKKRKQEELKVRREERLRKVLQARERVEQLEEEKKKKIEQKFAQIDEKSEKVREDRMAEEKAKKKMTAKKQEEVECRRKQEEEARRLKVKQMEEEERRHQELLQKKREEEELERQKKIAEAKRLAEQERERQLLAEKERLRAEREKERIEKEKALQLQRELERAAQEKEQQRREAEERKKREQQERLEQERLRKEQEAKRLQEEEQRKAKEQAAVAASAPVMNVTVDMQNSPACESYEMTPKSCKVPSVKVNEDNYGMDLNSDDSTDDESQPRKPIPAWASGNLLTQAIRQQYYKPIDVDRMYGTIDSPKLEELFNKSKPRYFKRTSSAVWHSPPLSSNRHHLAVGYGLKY
measuredAttribute: pIC50
Numbers only, as −log10 of the molar value.

Ask: Value lookup for pIC50; key = COc1cc(/C=N/NC(=O)c2sc(N)nc2C)ccc1O [OM137]
Reply: 5.62

====

targetEntity: Aurora A kinase (Homo sapiens, UniProt O14965)
Sequence (O14965 122-403): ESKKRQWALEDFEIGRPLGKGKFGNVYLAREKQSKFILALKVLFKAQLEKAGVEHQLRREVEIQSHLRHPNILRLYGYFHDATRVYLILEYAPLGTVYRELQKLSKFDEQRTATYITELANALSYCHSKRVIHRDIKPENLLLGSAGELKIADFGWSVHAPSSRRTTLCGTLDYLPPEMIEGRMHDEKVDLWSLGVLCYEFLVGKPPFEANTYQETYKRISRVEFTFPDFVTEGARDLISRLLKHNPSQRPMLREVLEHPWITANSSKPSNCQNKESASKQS
Sequence (Q9ULW0 1-747 partner): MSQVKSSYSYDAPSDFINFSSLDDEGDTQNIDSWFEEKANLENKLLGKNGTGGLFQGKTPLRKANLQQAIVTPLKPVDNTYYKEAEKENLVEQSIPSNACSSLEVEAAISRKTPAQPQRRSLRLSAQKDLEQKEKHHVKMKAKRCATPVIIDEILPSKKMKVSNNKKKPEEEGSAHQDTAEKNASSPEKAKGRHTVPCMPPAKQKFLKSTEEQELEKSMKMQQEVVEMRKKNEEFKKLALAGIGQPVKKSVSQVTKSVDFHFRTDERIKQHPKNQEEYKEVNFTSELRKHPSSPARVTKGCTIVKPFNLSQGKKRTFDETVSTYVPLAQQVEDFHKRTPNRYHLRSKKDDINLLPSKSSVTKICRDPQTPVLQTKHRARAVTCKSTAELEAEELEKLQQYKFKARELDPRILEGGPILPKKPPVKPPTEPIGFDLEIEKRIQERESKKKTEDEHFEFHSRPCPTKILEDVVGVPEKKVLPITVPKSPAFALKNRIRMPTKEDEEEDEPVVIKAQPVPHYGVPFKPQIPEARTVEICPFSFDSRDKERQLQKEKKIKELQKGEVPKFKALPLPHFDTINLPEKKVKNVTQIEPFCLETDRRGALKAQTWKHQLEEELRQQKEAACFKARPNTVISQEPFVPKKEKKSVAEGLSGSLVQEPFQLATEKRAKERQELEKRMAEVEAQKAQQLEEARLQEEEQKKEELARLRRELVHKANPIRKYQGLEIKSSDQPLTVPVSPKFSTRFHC
measuredAttribute: pIC50
Give bare numbers, as −log10 of the molar value.

Ask: Consider the compound shown here: COc1cc(/C=N/NC(=O)c2sc(N)nc2C)ccc1O [OM137] What is its recorded pIC50?
Reply: 4.66
